# Test system: Neuregulin-1 EGF-like domain
# measurementProtocol: small molecules binding NRG1 EGF domain – biochemical, small-molecule microarray, 635 nm fluorescence, primary screen (AID 1081);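 further: binding of the protein to compounds printed on small-molecule microarray slides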
# recordedConditions: higher = more signal
experimentalEndpoint: composite z-score
Hey, just send me the number, nothing else.

Consider the reported composite z-score for these compounds:
INSERT INTO results (compound, testsystem, recordednumber) VALUES
  ('CN1C(=O)C2C=CC(C(O)c3ccc(F)cc3)N(N3CCCCC3)C2C1=O (stereo not given)', 'Neuregulin-1 EGF-like domain', 1.19),
  ('C=C(CCCC)/C(=C/C[C@H](OC(=O)c1ccncc1)c1ccc(CO)o1)c1cc(C(=O)OC)ccc1OC', 'Neuregulin-1 EGF-like domain', 1.26);

What value of measured composite z-score is listed for `Cc1ccc(S[C@]2(C(=O)NCc3ccccc3)CC(=O)N(C3Cc4ccccc4C3)[C@@H]2c2ccc(CO)cc2I)cc1` ?
-0.185

Repeat for the following compound: `CC(C)(C)OC(=O)CC[C@]1(C(=O)N2CCCCC2)N=C(c2ccc(OCCCO)cc2)O[C@H]1c1ccccc1CN=[N+]=[N-]`
1.38

Quick one: `Cc1ccc(-c2cccc(=O)o2)cc1`
-0.596
